These entries and their values trace back to patent US8906904B2.

- assayed system: human soluble guanylate cyclase alpha 1 and beta 1 subunits (sGC) (Homo sapiens, UniProt Q02108+Q02153)
- Sequence (Q02108 whole entry): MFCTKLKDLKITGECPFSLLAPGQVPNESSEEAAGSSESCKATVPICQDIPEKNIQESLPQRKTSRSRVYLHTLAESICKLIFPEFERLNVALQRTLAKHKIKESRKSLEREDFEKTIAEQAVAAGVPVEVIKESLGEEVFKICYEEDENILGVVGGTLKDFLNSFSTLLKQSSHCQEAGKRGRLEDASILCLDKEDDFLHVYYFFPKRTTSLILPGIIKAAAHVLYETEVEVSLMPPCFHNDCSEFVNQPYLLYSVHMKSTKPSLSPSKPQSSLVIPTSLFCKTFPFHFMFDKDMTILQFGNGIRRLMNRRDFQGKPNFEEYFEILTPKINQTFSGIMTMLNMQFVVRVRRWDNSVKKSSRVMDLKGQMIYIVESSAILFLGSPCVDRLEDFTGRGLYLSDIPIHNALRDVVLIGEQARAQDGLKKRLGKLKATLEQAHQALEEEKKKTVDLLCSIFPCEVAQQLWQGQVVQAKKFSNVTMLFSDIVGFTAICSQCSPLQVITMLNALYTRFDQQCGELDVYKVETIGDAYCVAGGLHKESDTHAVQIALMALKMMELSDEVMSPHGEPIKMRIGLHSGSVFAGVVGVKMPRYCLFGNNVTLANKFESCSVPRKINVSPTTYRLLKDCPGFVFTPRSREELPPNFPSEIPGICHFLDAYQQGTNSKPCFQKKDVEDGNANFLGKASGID
- Sequence (Q02153 whole entry): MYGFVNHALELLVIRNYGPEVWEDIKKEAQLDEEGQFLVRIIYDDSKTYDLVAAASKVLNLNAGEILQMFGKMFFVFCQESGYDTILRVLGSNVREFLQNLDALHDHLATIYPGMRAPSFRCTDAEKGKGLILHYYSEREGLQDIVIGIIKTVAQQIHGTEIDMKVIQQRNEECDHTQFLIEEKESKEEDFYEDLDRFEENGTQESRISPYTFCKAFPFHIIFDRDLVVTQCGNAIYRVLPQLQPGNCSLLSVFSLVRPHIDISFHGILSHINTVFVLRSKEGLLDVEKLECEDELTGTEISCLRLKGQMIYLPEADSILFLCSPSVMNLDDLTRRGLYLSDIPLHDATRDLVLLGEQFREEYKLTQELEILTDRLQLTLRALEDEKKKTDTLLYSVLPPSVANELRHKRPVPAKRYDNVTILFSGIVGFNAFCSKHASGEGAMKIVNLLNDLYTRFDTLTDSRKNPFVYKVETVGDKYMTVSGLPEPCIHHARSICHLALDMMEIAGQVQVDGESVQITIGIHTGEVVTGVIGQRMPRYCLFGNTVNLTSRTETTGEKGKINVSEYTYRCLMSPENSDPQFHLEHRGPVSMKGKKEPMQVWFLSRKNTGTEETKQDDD
- protocol description: sGC cellular activator assay (cGMP, HTRF)
- particulars: CHO cells stably expressing human sGC alpha 1/beta 1, preincubated with 40 microM ODQ; cGMP readout; assay run with and without 50% human serum, Table 2 does not say which
pEC50: −log10 of the molar value.
property: pEC50

compound=CCOc1c(C(=O)O)cnn1-c1cccc(-c2cccc(C)c2OCc2ccc3c(c2C)CCN(C[C@H]2COC(C)(C)O2)C3)n1 endpoint_result=7.23
compound=CCOc1c(C(=O)O)cnn1-c1cccc(-c2cccc(C)c2OCc2ccc3c(c2C)CCN(C[C@H]2CCCCO2)CC3)n1 endpoint_result=7.52
compound=CCOc1c(C(=O)O)cnn1-c1cccc(-c2cccc(C)c2OCc2ccc3c(c2C)CCN(C[C@H]2CCCO2)CC3)n1 endpoint_result=7.96
compound="COc1c(C(=O)O)cnn1-c1cccc(-c2cccc(C)c2OCc2ccc3c(c2)CCN(C2CCOC(C)(C)C2)C3)n1 (stereo not drawn)" endpoint_result=7.23
compound=COc1c(C(=O)O)cnn1-c1cccc(-c2cccc(C)c2OCc2ccc3c(c2)CCN(C[C@H]2CCOC2)C3)n1 endpoint_result=8.00
compound="COc1c(C(=O)O)cnn1-c1cccc(-c2cccc(C)c2OCc2ccc3c(c2)CCN(C2CC(C)OC(C)C2)C3)n1 (stereo not drawn)" endpoint_result=7.62
compound=COc1c(C(=O)O)cnn1-c1cccc(-c2cccc(C)c2OCc2ccc3c(c2)CCN(C2CCOCC2)C3)n1 endpoint_result=7.54
compound="CCOc1c(C(=O)O)cnn1-c1cccc(-c2cccc(C)c2OCc2ccc3c(c2)CCN(C2CC(C)OC(C)C2)C3)n1 (stereo not drawn)" endpoint_result=7.25
compound="COc1c(C(=O)O)cnn1-c1cccc(-c2cccc(C)c2OCc2ccc3c(c2)CCN(C2CCOC2)C3)n1 (stereo not drawn)" endpoint_result=7.55
compound=COc1c(C(=O)O)cnn1-c1cccc(-c2cccc(C)c2OCc2ccc3c(c2)CCN(CC2CC(F)(F)C2)C3)n1 endpoint_result=8.30
compound=COc1c(C(=O)O)cnn1-c1cccc(-c2cccc(C)c2OCc2cc(F)c3c(c2)CCN([C@H]2CCOC2)C3)n1 endpoint_result=7.60
compound=CCOc1c(C(=O)O)cnn1-c1cccc(-c2cccc(C)c2OCc2cc3c(c(C(F)(F)F)c2)CN(C2CCOCC2)CC3)n1 endpoint_result=7.60
compound=COc1c(C(=O)O)cnn1-c1cccc(-c2cccc(C)c2OCc2ccc3c(c2Cl)CCN(CC(C)(C)C)C3)n1 endpoint_result=7.77
compound=COc1c(C(=O)O)cnn1-c1cccc(-c2cccc(C)c2OCc2ccc3c(c2)CCN([C@H]2CC[C@@H](OC)CC2)C3)n1 endpoint_result=7.12
compound="CCOc1c(C(=O)O)cnn1-c1cccc(-c2cccc(C)c2OCc2cc(C)c3c(c2)CCN(C2CCCOC2)C3)n1 (stereo not drawn)" endpoint_result=7.89
compound=COc1c(C(=O)O)cnn1-c1cccc(-c2cccc(C)c2OCc2ccc3c(c2)CCN(CC2CC2)C3)n1 endpoint_result=7.27
compound=COc1c(C(=O)O)cnn1-c1cccc(-c2cccc(C)c2OCc2ccc3c(c2C)CCN(C[C@H]2CCCO2)CC3)n1 endpoint_result=8.27
compound=CCOc1c(C(=O)O)cnn1-c1cccc(-c2cccc(C)c2OCc2cc(C)c3c(c2)CCN([C@H]2CCCOC2)C3)n1 endpoint_result=7.72
compound=CCOc1c(C(=O)O)cnn1-c1cccc(-c2cccc(C)c2OCc2ccc3c(c2C)CCN(C2CCOCC2)C3)n1 endpoint_result=7.40
compound=COc1c(C(=O)O)cnn1-c1cccc(-c2cc(C)cc(C)c2OCc2ccc3c(c2C)CCN(C2CCOCC2)C3)n1 endpoint_result=7.55
compound=CCOc1c(C(=O)O)cnn1-c1cccc(-c2cccc(C)c2OCc2ccc3c(c2C)CCN(C[C@H]2COCCO2)C3)n1 endpoint_result=7.55
compound=COc1c(C(=O)O)cnn1-c1cccc(-c2cccc(C)c2OCc2ccc3c(c2C)CCN(CC2CC(F)(F)C2)C3)n1 endpoint_result=8.46
compound="CCOc1c(C(=O)O)cnn1-c1cccc(-c2cccc(C)c2OCc2ccc3c(c2)CCN(C(C)CS(C)(=O)=O)C3)n1 (stereo not drawn)" endpoint_result=6.74
compound=CCOc1c(C(=O)O)cnn1-c1cccc(-c2cccc(C)c2OCc2ccc3c(c2C)CCN(C[C@@H]2CCCCO2)CC3)n1 endpoint_result=7.43
compound=CCCOc1c(C(=O)O)cnn1-c1cccc(-c2cccc(C)c2OCc2ccc3c(c2C)CCN(C2CCOCC2)C3)n1 endpoint_result=7.57
compound=COc1c(C(=O)O)cnn1-c1cccc(-c2cccc(C)c2OCc2ccc3c(c2C)CCN(CC(C)(C)C)C3)n1 endpoint_result=8.00
compound=COc1c(C(=O)O)cnn1-c1cccc(-c2cccc(C)c2OCc2ccc3c(c2Cl)CCN(C2CCC2)C3)n1 endpoint_result=7.62

----------
- assayed system: human soluble guanylate cyclase alpha 1 and beta 1 subunits (sGC) (Homo sapiens, UniProt Q02108+Q02153)
- protocol description: sGC cellular activator assay (cGMP, HTRF)
- particulars: CHO cells stably expressing human sGC alpha 1/beta 1, preincubated with 40 microM ODQ; cGMP readout; assay run with and without 50% human serum, Table 2 does not say which
Reported EC50 is given for each of the following molecules.
property: EC50 (nM)

molecule="CCOc1c(C(=O)O)cnn1-c1cccc(-c2cccc(C)c2OCc2ccc3c(c2)CCN([C@@H]2CCOC2)C3)n1 [Compound 112]" endpoint_result=110
molecule="COc1c(C(=O)O)cnn1-c1cccc(-c2cccc(C)c2OCc2cc(C)c3c(c2)CCN(C2CCCOC2)C3)n1 (centres unmarked) [Compound 237]" endpoint_result=4.9
molecule="CCOc1c(C(=O)O)cnn1-c1cccc(-c2cccc(C)c2OCc2ccc3c(c2C)CCN(C2CCOCC2)CC3)n1 [Compound 162]" endpoint_result=23
molecule="CCOc1c(C(=O)O)cnn1-c1cccc(-c2cccc(C)c2OCc2cc(C)c3c(c2)CCN(C2COC2)C3)n1 [Compound 174]" endpoint_result=14
molecule="CCOc1c(C(=O)O)cnn1-c1cccc(-c2cccc(C)c2OCc2ccc3c(c2)CCN(CC2CC(=O)N(C)C2)C3)n1 (centres unmarked) [Compound 97]" endpoint_result=67

----------
- protocol description: Assessment of solubility (McIlvaine buffers, 24 h shake, UPLC-UV)
- Type: physicochemical
- particulars: pH 6.8, aqueous buffer, kinetic from dmso stock
Reported solubility at 24 h is given for each of the following compounds.
property: solubility at 24 h (µg/mL)

compound="COc1c(C(=O)O)cnn1-c1cccc(-c2cccc(C)c2OCc2ccc3c(c2)CN(CC2COCCO2)C3)n1 (stereo not shown)" property="solubility at 24 h" endpoint_result=71
compound=CCOc1c(C(=O)O)cnn1-c1cccc(-c2cccc(C)c2OCc2ccc3c(c2C)CCN([C@H]2CCOC2)C3)n1 property="solubility at 24 h" endpoint_result=78
compound="COc1c(C(=O)O)cnn1-c1cccc(-c2cccc(C)c2OCc2ccc3c(c2)CCN(C2CCOCC2C)C3)n1 (stereo not shown)" property="solubility at 24 h" endpoint_result=91
compound=Cc1cccc(-c2cccc(-n3ncc(C(=O)O)c3OC(C)C)n2)c1OCc1ccc2c(c1)CCN(C1COC1)C2 property="solubility at 24 h" endpoint_result=81

----------
Reported EC50 is given for each of the following compounds.
- assayed system: human soluble guanylate cyclase alpha 1 and beta 1 subunits (sGC) (Homo sapiens, UniProt Q02108+Q02153)
- protocol description: sGC cellular activator assay (cGMP, HTRF)
- particulars: CHO cells stably expressing human sGC alpha 1/beta 1, preincubated with 40 microM ODQ; cGMP readout; assay run with and without 50% human serum, Table 2 does not say which
property: EC50

compound="COc1c(C(=O)O)cnn1-c1cccc(-c2cccc(C)c2OCc2ccc3c(c2)C(C)(C)CN(CC2COCCO2)C3)n1 (stereo not drawn)" endpoint_result="140 nM"
compound=CCOc1c(C(=O)O)cnn1-c1cccc(-c2cccc(C)c2OCc2ccc3c(c2C)CCN(C[C@H]2CCCOC2)C3)n1 endpoint_result="26 nM"
compound=COc1c(C(=O)O)cnn1-c1cccc(-c2cccc(C(F)(F)F)c2OCc2ccc3c(c2)CCN(C2COC2)C3)n1 endpoint_result="59 nM"
compound=CCOc1c(C(=O)O)cnn1-c1cccc(-c2cccc(C)c2OCc2ccc3c(c2C)CCN([C@@H]2CCCOC2)C3)n1 endpoint_result="15 nM"
compound="COc1c(C(=O)O)cnn1-c1cccc(-c2cccc(C)c2OCc2cc(C)c3c(c2)CCN(CC2COCCO2)C3)n1 (stereo not drawn)" endpoint_result="7.9 nM"
compound="COc1c(C(=O)O)cnn1-c1cccc(-c2cccc(C)c2OCc2cc(C)c3c(c2C)CN(CC2COCCO2)C3)n1 (stereo not drawn)" endpoint_result="6.5 nM"

----------
- protocol description: Assessment of solubility (McIlvaine buffers, 24 h shake, UPLC-UV)
- Type: physicochemical
- particulars: pH 4.5, aqueous buffer, kinetic from dmso stock
Reported solubility at 24 h is given for each of the following compounds.
property: solubility at 24 h (µg/mL)

compound=CCOc1c(C(=O)O)cnn1-c1cccc(-c2cccc(C)c2OCc2cc(C)c3c(c2)CCN(CC2(C)COC2)C3)n1 endpoint_result=73
compound=Cc1cccc(-c2cccc(-n3ncc(C(=O)O)c3OC(C)C)n2)c1OCc1ccc2c(c1C)CCN([C@H]1CCCOC1)C2 endpoint_result=82
compound=COc1c(C(=O)O)cnn1-c1cccc(-c2cccc(C)c2OCc2ccc3c(c2)CCN([C@H]2CC[C@]4(CCCO4)CC2)C3)n1 endpoint_result=81
compound=COc1c(C(=O)O)cnn1-c1cccc(-c2cccc(C)c2OCc2ccc3c(c2)OCCN(C2CCOCC2)C3)n1 endpoint_result=100
compound="COc1c(C(=O)O)cnn1-c1cccc(-c2cccc(C)c2OCc2ccc3c(c2C)CCN(C2CCOC2)C3)n1 (stereo not drawn)" endpoint_result=89
compound=Cc1cccc(-c2cccc(-n3ncc(C(=O)O)c3OC(C)C)n2)c1OCc1ccc2c(c1C)CCN(C1CCOCC1)C2 endpoint_result=93
